Entry source: patent US7135572B2

Target: cyclooxygenase-1 (Homo sapiens)
Construct: The cultured U-937 (humane lymphoma cell, obtained from Korean cell line bank) was centrifuged to collect the pellet; endogenous in cells; host or cells: U-937 (human lymphoma cell line, Korean cell line bank)
Sequence (P23219 24-599): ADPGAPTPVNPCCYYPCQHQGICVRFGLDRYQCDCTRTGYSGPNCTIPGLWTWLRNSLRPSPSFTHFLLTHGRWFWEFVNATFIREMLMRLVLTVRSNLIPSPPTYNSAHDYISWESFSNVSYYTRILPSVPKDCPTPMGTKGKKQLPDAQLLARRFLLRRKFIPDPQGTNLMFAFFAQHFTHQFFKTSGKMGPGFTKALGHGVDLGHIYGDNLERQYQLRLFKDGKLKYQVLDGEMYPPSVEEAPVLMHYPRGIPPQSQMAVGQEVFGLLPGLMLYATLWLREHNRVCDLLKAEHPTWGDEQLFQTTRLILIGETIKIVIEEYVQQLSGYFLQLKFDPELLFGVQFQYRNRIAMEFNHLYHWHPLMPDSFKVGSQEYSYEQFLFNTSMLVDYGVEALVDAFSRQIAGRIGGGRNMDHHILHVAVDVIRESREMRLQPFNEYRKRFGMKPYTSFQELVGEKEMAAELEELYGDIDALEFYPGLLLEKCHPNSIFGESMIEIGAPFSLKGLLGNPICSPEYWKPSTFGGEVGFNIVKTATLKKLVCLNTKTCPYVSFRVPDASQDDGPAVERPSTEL
Assay: Inhibition of cyclooxygenase-1 in U-937 cells (PGE2 quantitation)
Format: cell-based
Conditions: 10 μM; U-937 cells
# fulfilled = Inhibitory effects of cyclooxygenase (COX): COX-1 below 50 % inhibition (exclusive); not fulfilled = Inhibitory effects of cyclooxygenase (COX): COX-1 at/above 50 % inhibition

Solved cases (3 shown):
{"Query Smiles": "COc1ccc(-c2nc(C)nn2-c2ccc(S(N)(=O)=O)cc2)cc1", "Discrete Label": "not fulfilled"}
{"Query Smiles": "COc1ccccc1-c1nc(C)nn1-c1ccc(S(N)(=O)=O)cc1", "Discrete Label": "not fulfilled"}
{"Query Smiles": "Cc1nc(-c2cccc(F)c2)n(-c2ccc(S(N)(=O)=O)cn2)n1", "Discrete Label": "fulfilled"}

Exercise: Is Inhibitory effects of cyclooxygenase (COX): COX-1 of Cc1nc(-c2ccccc2)n(-c2ccc(S(N)(=O)=O)cc2)n1 strictly below 50 % inhibition?
Solution: fulfilled

Exercise: Is Inhibitory effects of cyclooxygenase (COX): COX-1 of Cc1nc(-c2ccc(Cl)cc2)n(-c2ccc(S(N)(=O)=O)cn2)n1 strictly below 50 % inhibition?
Solution: fulfilled

Exercise: Is Inhibitory effects of cyclooxygenase (COX): COX-1 of Cc1nc(-c2ccccc2)n(-c2ccc(S(N)(=O)=O)cn2)n1 strictly below 50 % inhibition?
Solution: fulfilled

Exercise: Is Inhibitory effects of cyclooxygenase (COX): COX-1 of Cc1nc(-c2ccccc2)n(-c2ccc(S(C)(=O)=O)cc2)n1 strictly below 50 % inhibition?
Solution: fulfilled

Exercise: Is Inhibitory effects of cyclooxygenase (COX): COX-1 of Cc1nc(-c2ccc(Cl)cc2)n(-c2ccc(S(N)(=O)=O)cc2)n1 strictly below 50 % inhibition?
Solution: fulfilled

Exercise: Is Inhibitory effects of cyclooxygenase (COX): COX-1 of Cc1nc(-c2cccc(Cl)c2)n(-c2ccc(S(N)(=O)=O)cc2)n1 strictly below 50 % inhibition?
Solution: not fulfilled

Exercise: Is Inhibitory effects of cyclooxygenase (COX): COX-1 of Cc1nc(-c2ccc(Br)cc2)n(-c2ccc(S(C)(=O)=O)cc2)n1 strictly below 50 % inhibition?
Solution: not fulfilled

Exercise: Is Inhibitory effects of cyclooxygenase (COX): COX-1 of Cc1ccc(-c2nc(C)nn2-c2ccc(S(N)(=O)=O)cc2)cc1 strictly below 50 % inhibition?
Solution: not fulfilled

Exercise: Is Inhibitory effects of cyclooxygenase (COX): COX-1 of Cc1nc(-c2ccc(Br)cc2)n(-c2ccc(S(C)(=O)=O)cn2)n1 strictly below 50 % inhibition?
Solution: not fulfilled
